Provide the recorded normalized growth for the entries that follow.
- TEST METHOD NOTES: chemical genetic growth profiling, strain panel (AID 1159580);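 further: tested at 20 µM; growth read once vehicle control cultures reached saturation at 30 °C; 1 = growth at the plate median or of vehicle wells; lower values mean less growth of the strain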
- EXPERIMENTAL SETUP: S. cerevisiae deletion strains, growth OD, locus YPL051W, strain arl3, hits give low values
The campaign covered roughly 5,500 compounds. About 2,000 (36%) were called active. Not shown: some 18% with an inconclusive outcome. Some of the results follow.
Numbers only.

Below, each entry is followed by its recorded normalized growth result.
| COMPOUND | normalized growth |
| --- | --- |
| NCC1CCC(C(=O)O)CC1 (centres undefined) | 0.993 |
| Cc1cc(O)c(C=O)c(O)c1C(=O)O | 0.999 |
| COc1cc(/C=C/C(=O)/C=C(O)/C=C/c2ccc(O)c(OC)c2)ccc1O | 0.118 |
| CC(CCc1ccccc1)NC(C)C(O)c1ccc(O)cc1 (centres undefined) | 1.02 |
| CC1=C(C(C)O)C2=NC1C=c1[nH]c(c(C)c1C(C)O)=Cc1[nH]c(c(CCC(=O)O)c1C)C=c1[nH]c(c(C)c1CCC(=O)O)=C2 (centres undefined) | 0.984 |
| CCOC(=O)c1c(C)c(Cl)c(O)c(Cl)c1O | 0.414 |
| COc1cc(NC(C)CCCN)c2ncccc2c1 (centres undefined) | 0.982 |
| CNC(C)[C@H](O)c1ccccc1 (some centres undefined) | 1.03 |

Here is the next item to consider.
Per the record, CCCCCCCCNC(C)C(O)c1ccc(SC(C)C)cc1 (centres undefined) has normalized growth of 0.0586
